Sourced from ChEMBL document CHEMBL3102735

# Measured On: Prostaglandin G/H synthase 2 (Homo sapiens, UniProt P35354)
# Sequence (P35354 whole entry): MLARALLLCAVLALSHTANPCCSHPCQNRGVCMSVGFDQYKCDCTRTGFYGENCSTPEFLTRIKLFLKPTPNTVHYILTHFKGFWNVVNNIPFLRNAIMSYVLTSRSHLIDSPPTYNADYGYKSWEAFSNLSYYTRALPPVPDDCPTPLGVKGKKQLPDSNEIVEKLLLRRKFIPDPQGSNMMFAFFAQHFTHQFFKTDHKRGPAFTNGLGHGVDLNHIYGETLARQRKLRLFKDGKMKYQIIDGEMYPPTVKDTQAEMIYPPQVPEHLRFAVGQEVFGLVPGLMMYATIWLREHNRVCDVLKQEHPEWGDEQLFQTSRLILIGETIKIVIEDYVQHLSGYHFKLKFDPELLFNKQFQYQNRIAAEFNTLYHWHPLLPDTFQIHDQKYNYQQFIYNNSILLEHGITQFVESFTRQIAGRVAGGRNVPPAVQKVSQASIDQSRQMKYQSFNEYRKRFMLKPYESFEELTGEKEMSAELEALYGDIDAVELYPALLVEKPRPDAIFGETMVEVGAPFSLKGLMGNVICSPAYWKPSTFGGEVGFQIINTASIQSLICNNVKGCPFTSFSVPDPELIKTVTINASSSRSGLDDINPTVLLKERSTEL
pIC50: −log10 of the molar value.
Assay Endpoint: pIC50

Input line: May I ask what pIC50 has been recorded for Cc1c(CC(=O)NCCO[N+](=O)[O-])cc(-c2ccc(S(C)(=O)=O)cc2)n1-c1ccc(F)cc1 ?
Output line: 5.77

Input line: May I ask what pIC50 has been recorded for Cc1c(CC(=O)NCCO)cc(-c2ccc(S(C)(=O)=O)cc2)n1-c1ccc(F)cc1 ?
Output line: 5.85
